Target: human TAS2R1 (Homo sapiens, UniProt Q9NYW7)
Construct: expressed in transfected cells; host or cells: HEK293T-Gα16gust44
Sequence (Q9NYW7 1-299): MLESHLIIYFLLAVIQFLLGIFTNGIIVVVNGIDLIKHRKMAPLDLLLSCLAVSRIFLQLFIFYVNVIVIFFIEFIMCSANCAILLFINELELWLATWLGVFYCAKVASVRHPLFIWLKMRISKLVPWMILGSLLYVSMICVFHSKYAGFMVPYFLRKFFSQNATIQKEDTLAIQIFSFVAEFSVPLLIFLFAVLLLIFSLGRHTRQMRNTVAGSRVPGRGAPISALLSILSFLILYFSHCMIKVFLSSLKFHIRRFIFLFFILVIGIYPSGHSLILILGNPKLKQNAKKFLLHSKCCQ
Experiment: Calcium imaging assay (FLIPR), HEK293T-Gα16gust44 cells transfected with human TAS2R1
Format: cell-based
Details: Time 62.796 s
measured_parameter: RLU (RLU)

- compound: "C[C@H](CCC(=O)O)[C@H]1CC[C@H]2[C@@H]3CC[C@@H]4C[C@H](O)CC[C@]4(C)[C@H]3CC[C@]12C [Lithocholic Acid, lithocholic acid]"
  units_symbol: "RLU"
  measured_number: 815.671
- compound: "C[C@H](CCC(=O)O)[C@H]1CC[C@H]2[C@@H]3[C@@H](O)C[C@@H]4C[C@H](O)CC[C@]4(C)[C@H]3CC[C@]12C [Ursodeoxycholic Acid, ursodeoxycholic acid]"
  units_symbol: "RLU"
  measured_number: 660.683
- compound: "C[C@H](CCC(=O)O)[C@H]1CC[C@H]2[C@@H]3[C@H](O)C[C@@H]4C[C@H](O)CC[C@]4(C)[C@H]3CC[C@]12C [Chenodeoxycholic Acid, chenodeoxycholic acid]"
  units_symbol: "RLU"
  measured_number: 877.876
- compound: "C[C@H](CCC(=O)O)[C@H]1CC[C@H]2[C@@H]3[C@H](O)C[C@@H]4C[C@H](O)CC[C@]4(C)[C@H]3C[C@H](O)[C@]12C [Cholic Acid, cholic acid]"
  units_symbol: "RLU"
  measured_number: 752.117

---

Target: human TAS2R1 (Homo sapiens)
Construct: expressed in transfected cells; host or cells: HEK293T-Gα16gust44
Sequence (Q9NYW7 1-299): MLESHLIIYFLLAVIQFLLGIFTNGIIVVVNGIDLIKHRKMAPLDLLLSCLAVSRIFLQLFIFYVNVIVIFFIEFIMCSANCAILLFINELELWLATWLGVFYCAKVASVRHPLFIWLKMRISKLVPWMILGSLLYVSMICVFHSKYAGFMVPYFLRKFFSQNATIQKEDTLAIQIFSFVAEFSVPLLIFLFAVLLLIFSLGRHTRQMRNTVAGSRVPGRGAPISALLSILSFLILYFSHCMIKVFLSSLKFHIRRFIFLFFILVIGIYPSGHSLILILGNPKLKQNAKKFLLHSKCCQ
Assay: Calcium imaging assay (FLIPR), HEK293T-Gα16gust44 cells transfected with human TAS2R1
Type: cell-based
Settings: Time 98.781 s
# RLU listing for each entry below
measured_parameter: RLU (RLU)

- molecule_smiles: "C[C@H](CCC(=O)NCCS(=O)(=O)O)[C@H]1CC[C@H]2[C@@H]3[C@H](O)C[C@@H]4C[C@H](O)CC[C@]4(C)[C@H]3C[C@H](O)[C@]12C"
  tested_target: "human TAS2R1 (Homo sapiens)"
  units_symbol: "RLU"
  measured_number: 382.662
- molecule_smiles: "C[C@H](CCC(=O)NCCS(=O)(=O)O)[C@H]1CC[C@H]2[C@@H]3CC[C@@H]4C[C@H](O)CC[C@]4(C)[C@H]3CC[C@]12C"
  tested_target: "human TAS2R1 (Homo sapiens)"
  units_symbol: "RLU"
  measured_number: 639.76
- molecule_smiles: "C[C@H](CCC(=O)O)[C@H]1CC[C@H]2[C@@H]3CC[C@@H]4C[C@H](O)CC[C@]4(C)[C@H]3C[C@H](O)[C@]12C"
  tested_target: "human TAS2R1 (Homo sapiens)"
  units_symbol: "RLU"
  measured_number: 408.833
- molecule_smiles: "C[C@H](CCC(=O)NCC(=O)O)[C@H]1CC[C@H]2[C@@H]3[C@H](O)C[C@@H]4C[C@H](O)CC[C@]4(C)[C@H]3C[C@H](O)[C@]12C"
  tested_target: "human TAS2R1 (Homo sapiens)"
  units_symbol: "RLU"
  measured_number: 566.578

---

biological target: human TAS2R14 (Homo sapiens); construct: expressed in transfected cells; host or cells: HEK293T-Gα16gust44; experiment: Calcium imaging assay (FLIPR), HEK293T-Gα16gust44 cells transfected with human TAS2R14; format: cell-based; details: TAS2R14 trace; Time (s) 132.797 (Chenodeoxycholic Acid 132.781)
The entries below come with measured RLU values attached.
measured_parameter: RLU (RLU)

- molecule_smiles: "C[C@H](CCC(=O)NCCS(=O)(=O)O)[C@H]1CC[C@H]2[C@@H]3[C@H](O)C[C@@H]4C[C@H](O)CC[C@]4(C)[C@H]3C[C@H](O)[C@]12C"
  measured_number: 1039.88
- molecule_smiles: "C[C@H](CCC(=O)NCC(=O)O)[C@H]1CC[C@H]2[C@@H]3[C@H](O)C[C@@H]4C[C@H](O)CC[C@]4(C)[C@H]3C[C@H](O)[C@]12C"
  measured_number: 937.794
- molecule_smiles: "C[C@H](CCC(=O)O)[C@H]1CC[C@H]2[C@@H]3[C@H](O)C[C@@H]4C[C@H](O)CC[C@]4(C)[C@H]3CC[C@]12C"
  measured_number: 469.949
- molecule_smiles: "C[C@H](CCC(=O)O)[C@H]1CC[C@H]2[C@@H]3[C@H](O)C[C@@H]4C[C@H](O)CC[C@]4(C)[C@H]3C[C@H](O)[C@]12C"
  measured_number: 1269.55
- molecule_smiles: "C[C@H](CCC(=O)NCCS(=O)(=O)O)[C@H]1CC[C@H]2[C@@H]3CC[C@@H]4C[C@H](O)CC[C@]4(C)[C@H]3CC[C@]12C"
  measured_number: 394.817

---

target: mouse Tas2r105 (Mus musculus, UniProt Q9JKT4); construct: expressed in transfected cells; host or cells: HEK293T-Gα16gust44; assay: Calcium imaging assay (FLIPR), HEK293T-Gα16gust44 cells transfected with mouse Tas2r105; type: cell-based; conditions: Time 38.781 s
Sequence (Q9JKT4 whole entry): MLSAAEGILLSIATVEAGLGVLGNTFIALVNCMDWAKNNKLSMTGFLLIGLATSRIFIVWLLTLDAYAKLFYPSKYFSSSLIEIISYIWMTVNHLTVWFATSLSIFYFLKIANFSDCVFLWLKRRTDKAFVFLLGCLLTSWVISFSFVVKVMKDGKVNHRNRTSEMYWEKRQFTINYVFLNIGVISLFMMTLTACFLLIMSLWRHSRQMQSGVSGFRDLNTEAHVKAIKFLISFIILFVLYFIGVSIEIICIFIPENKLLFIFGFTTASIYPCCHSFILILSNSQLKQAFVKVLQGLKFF
Entries and their measured RLU follow.
measured_parameter: RLU

- molecule_smiles: "C[C@H](CCC(=O)O)[C@H]1CC[C@H]2[C@@H]3CC[C@@H]4C[C@H](O)CC[C@]4(C)[C@H]3CC[C@]12C"
  result: "6.659 RLU"
- molecule_smiles: "C[C@H](CCC(=O)O)[C@H]1CC[C@H]2[C@@H]3[C@H](O)C[C@@H]4C[C@H](O)CC[C@]4(C)[C@H]3C[C@H](O)[C@]12C"
  result: "89.1237 RLU"
- molecule_smiles: "C[C@H](CCC(=O)NCC(=O)O)[C@H]1CC[C@H]2[C@@H]3[C@H](O)C[C@@H]4C[C@H](O)CC[C@]4(C)[C@H]3C[C@H](O)[C@]12C"
  result: "121.11 RLU"
- molecule_smiles: "C[C@H](CCC(=O)O)[C@H]1CC[C@H]2[C@@H]3CC[C@@H]4C[C@H](O)CC[C@]4(C)[C@H]3C[C@H](O)[C@]12C"
  result: "-14.3055 RLU"

---

molecular target: human TAS2R1 (Homo sapiens, UniProt Q9NYW7); construct: expressed in transfected cells; host or cells: HEK293T-Gα16gust44; assay: Calcium imaging assay (FLIPR), HEK293T-Gα16gust44 cells transfected with human TAS2R1; type: cell-based; settings: Time 54.781 s
measured_parameter: RLU

- molecule_smiles: "C[C@H](CCC(=O)O)[C@H]1CC[C@H]2[C@@H]3CC[C@@H]4C[C@H](O)CC[C@]4(C)[C@H]3C[C@H](O)[C@]12C"
  result: "370.149 RLU"
- molecule_smiles: "C[C@H](CCC(=O)NCC(=O)O)[C@H]1CC[C@H]2[C@@H]3[C@H](O)C[C@@H]4C[C@H](O)CC[C@]4(C)[C@H]3C[C@H](O)[C@]12C"
  result: "607.705 RLU"
- molecule_smiles: "C[C@H](CCC(=O)NCCS(=O)(=O)O)[C@H]1CC[C@H]2[C@@H]3[C@H](O)C[C@@H]4C[C@H](O)CC[C@]4(C)[C@H]3C[C@H](O)[C@]12C"
  result: "392.471 RLU"
- molecule_smiles: "C[C@H](CCC(=O)NCCS(=O)(=O)O)[C@H]1CC[C@H]2[C@@H]3CC[C@@H]4C[C@H](O)CC[C@]4(C)[C@H]3CC[C@]12C"
  result: "649.802 RLU"

---

target: human TAS2R14 (Homo sapiens, UniProt Q9NYV8); construct: expressed in transfected cells; host or cells: HEK293T-Gα16gust44; experiment: Calcium imaging assay (FLIPR), HEK293T-Gα16gust44 cells transfected with human TAS2R14; type: cell-based; settings: TAS2R14 trace; Time (s) 58.797 (Chenodeoxycholic Acid 58.781)
Sequence (Q9NYV8 whole entry): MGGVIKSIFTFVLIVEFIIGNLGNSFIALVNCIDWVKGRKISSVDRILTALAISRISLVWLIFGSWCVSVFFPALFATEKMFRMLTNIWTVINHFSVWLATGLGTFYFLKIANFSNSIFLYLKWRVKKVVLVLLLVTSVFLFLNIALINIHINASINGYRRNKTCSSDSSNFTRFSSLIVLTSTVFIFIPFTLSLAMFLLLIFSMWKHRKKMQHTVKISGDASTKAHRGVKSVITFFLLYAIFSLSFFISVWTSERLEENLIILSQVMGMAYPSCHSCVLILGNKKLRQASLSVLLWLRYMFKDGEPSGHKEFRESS
Below, each of the compounds is paired with its reported RLU value.

- molecule_smiles: "C[C@H](CCC(=O)NCCS(=O)(=O)O)[C@H]1CC[C@H]2[C@@H]3[C@H](O)C[C@@H]4C[C@H](O)CC[C@]4(C)[C@H]3C[C@H](O)[C@]12C"
  RLU: "515.163 RLU"
- molecule_smiles: "C[C@H](CCC(=O)O)[C@H]1CC[C@H]2[C@@H]3[C@H](O)C[C@@H]4C[C@H](O)CC[C@]4(C)[C@H]3CC[C@]12C"
  RLU: "561.552 RLU"
- molecule_smiles: "C[C@H](CCC(=O)NCC(=O)O)[C@H]1CC[C@H]2[C@@H]3[C@H](O)C[C@@H]4C[C@H](O)CC[C@]4(C)[C@H]3C[C@H](O)[C@]12C"
  RLU: "448.405 RLU"
- molecule_smiles: "C[C@H](CCC(=O)NCCS(=O)(=O)O)[C@H]1CC[C@H]2[C@@H]3CC[C@@H]4C[C@H](O)CC[C@]4(C)[C@H]3CC[C@]12C"
  RLU: "176.389 RLU"
- molecule_smiles: "C[C@H](CCC(=O)O)[C@H]1CC[C@H]2[C@@H]3[C@H](O)C[C@@H]4C[C@H](O)CC[C@]4(C)[C@H]3C[C@H](O)[C@]12C"
  RLU: "677.301 RLU"
